Target: recombinant human ACC2 (Homo sapiens (Human), UniProt O00763)
Sequence (O00763 27-2458): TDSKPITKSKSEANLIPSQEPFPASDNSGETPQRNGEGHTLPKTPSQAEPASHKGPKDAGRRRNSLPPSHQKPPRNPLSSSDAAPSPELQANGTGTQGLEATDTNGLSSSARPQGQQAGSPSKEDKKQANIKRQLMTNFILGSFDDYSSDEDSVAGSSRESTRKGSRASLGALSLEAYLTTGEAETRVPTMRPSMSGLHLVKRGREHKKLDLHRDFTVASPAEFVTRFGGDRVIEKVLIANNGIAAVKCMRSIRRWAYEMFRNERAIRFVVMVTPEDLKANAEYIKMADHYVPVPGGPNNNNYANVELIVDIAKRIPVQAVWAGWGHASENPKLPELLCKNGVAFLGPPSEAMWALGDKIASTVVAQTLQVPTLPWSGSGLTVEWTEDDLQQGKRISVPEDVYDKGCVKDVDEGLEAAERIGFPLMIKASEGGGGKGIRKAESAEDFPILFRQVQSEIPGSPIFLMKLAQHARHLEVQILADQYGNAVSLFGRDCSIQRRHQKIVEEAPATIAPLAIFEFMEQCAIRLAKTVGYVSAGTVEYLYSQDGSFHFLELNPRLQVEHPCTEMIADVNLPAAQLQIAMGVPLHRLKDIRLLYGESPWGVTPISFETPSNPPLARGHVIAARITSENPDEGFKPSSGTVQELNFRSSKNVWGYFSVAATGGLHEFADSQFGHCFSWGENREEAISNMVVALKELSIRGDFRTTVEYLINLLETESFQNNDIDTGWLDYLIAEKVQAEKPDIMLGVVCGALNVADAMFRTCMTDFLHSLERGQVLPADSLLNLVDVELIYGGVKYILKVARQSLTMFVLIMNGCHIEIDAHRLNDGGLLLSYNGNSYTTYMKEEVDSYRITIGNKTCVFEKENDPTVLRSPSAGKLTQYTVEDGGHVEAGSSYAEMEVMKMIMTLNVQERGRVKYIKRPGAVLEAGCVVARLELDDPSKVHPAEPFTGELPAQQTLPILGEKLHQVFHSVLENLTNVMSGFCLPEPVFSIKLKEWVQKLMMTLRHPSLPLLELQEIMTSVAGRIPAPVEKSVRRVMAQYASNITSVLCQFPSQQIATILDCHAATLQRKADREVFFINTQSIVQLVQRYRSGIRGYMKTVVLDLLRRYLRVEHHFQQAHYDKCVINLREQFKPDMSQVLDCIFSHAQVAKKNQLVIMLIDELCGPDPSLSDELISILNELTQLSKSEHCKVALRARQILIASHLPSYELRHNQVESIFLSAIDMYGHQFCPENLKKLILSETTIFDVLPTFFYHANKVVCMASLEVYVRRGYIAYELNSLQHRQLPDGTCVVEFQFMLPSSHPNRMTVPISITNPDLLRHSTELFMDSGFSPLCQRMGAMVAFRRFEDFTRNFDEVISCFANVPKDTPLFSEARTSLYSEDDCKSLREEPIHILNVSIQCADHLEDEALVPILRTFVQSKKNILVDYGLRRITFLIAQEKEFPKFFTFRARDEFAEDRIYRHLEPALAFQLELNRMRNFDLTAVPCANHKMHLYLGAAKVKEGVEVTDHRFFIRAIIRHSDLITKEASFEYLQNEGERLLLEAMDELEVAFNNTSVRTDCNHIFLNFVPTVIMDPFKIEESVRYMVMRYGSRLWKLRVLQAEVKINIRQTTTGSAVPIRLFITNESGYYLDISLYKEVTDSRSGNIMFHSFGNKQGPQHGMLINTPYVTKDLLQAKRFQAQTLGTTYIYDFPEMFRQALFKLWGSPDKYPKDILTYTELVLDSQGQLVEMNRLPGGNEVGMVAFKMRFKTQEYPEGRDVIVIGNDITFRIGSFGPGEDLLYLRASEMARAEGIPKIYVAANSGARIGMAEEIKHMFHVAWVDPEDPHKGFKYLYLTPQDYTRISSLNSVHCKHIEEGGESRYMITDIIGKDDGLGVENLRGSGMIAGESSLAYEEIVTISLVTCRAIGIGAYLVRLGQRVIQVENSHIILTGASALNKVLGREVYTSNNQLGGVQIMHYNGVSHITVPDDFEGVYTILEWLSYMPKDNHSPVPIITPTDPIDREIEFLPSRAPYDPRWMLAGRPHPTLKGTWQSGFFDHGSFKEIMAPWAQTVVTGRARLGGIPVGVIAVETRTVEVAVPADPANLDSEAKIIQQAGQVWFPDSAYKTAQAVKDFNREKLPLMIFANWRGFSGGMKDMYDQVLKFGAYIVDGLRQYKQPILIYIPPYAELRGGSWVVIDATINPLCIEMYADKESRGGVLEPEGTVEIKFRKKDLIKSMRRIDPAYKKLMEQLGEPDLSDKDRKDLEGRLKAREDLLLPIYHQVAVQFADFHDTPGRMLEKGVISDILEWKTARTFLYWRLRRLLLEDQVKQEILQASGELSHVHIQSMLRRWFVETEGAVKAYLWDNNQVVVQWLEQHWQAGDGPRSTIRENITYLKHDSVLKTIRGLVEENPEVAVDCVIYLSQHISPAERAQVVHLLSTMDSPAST
Test: Measurement of inhibitory activity on human ACC2 (MALDI-TOF MS, acetyl CoA to malonyl CoA conversion)
Type: biochemical
Conditions: Tables 155-159
pIC50: −log10 of the molar value.
measure_name: pIC50

[I] CC(=O)N[C@@H](C)CO[C@H]1C[C@H](COc2ncnc(OCc3cccc(C(F)(F)F)c3)c2Cl)C1
[II] CC(=O)N[C@@H](C)CO[C@H]1C[C@H](COc2ccc3nc(OCC(C)(F)F)sc3n2)C1
[III] COc1ccc2c(c1)nc(O[C@H]1CC[C@H](OC[C@H](C)NC(C)=O)CC1)n2C
[IV] CC(=O)N[C@@H](C)CO[C@H]1C[C@H](COc2nsc3ccccc23)C1
Qu. Sort the listed entries by pIC50, smallest first. Kindly provide the labels arranged according to the requested ordering.
Ans. III, IV, I, II
(III: 6.03, IV: 6.91, I: 7.31, II: 7.92)

----------
Target: recombinant human ACC2 (Homo sapiens (Human), UniProt O00763)
Experiment: Measurement of inhibitory activity on human ACC2 (MALDI-TOF MS, acetyl CoA to malonyl CoA conversion)
Type: biochemical
Settings: Tables 155-159
measure_name: IC50 (nM)

Below: 5 compounds and their reported IC50.
>>> df
                                   compound  observed_measurement
0  CC(=O)N[C@@H](C)CO[C@H]1C[C@H](COc2ccc3nc(OC4CCCC4)sc3n2)C1                     7
1  CC(=O)N[C@@H](C)CO[C@H]1CC[C@H](Oc2ccc3nc(N4CCC4c4ccccc4)sc3c2F)CC1 (stereo partly shown)                   891
2  CC(=O)N[C@@H](C)CO[C@H]1CC[C@H](Oc2ccc3nc(OC(C)C)sc3n2)CC1                    12
3  CC(=O)N[C@@H](C)CO[C@H]1C[C@H](COc2nccc(OC3CCC3)c2Cl)C1                   113
4  CC(=O)N[C@@H](C)CO[C@H]1C[C@H](COc2ncnc3c2c(I)cn3CC2CC2)C1                   170

[1] CC(=O)N[C@@H](C)CO[C@H]1CC[C@H](Oc2cc3sc(OCC4CC4(F)F)nc3cn2)CC1 (stereo partly shown)
[2] CC(=O)N[C@@H](C)CO[C@H]1CC[C@H](Oc2nc3c(Cl)nc(OC4CC4)c(Cl)c3n2C)CC1
Qu. Task for the reader: decide whether 1 or 2 has the larger IC50. Please indicate the selected item by its label.
Ans. 1
(1: 9 nM, 2: 6 nM)

----------
Biological target: recombinant human ACC2 (Homo sapiens (Human), UniProt O00763)
Assay: Measurement of inhibitory activity on human ACC2 (MALDI-TOF MS, acetyl CoA to malonyl CoA conversion)
Type: biochemical
Conditions: Table 154
pIC50: −log10 of the molar value.
measure_name: pIC50

>>> print(df.to_string())
                                   compound  measure_name  observed_measurement
0  CC(=O)N[C@@H](C)COc1cnc(Oc2ccc3nc(C(C)C)sc3c2F)cn1 [Compound I-026]         pIC50                  7.70
1  CC(=O)N[C@@H](C)COc1cnc(Oc2ccc3nc(C4(C)CC4)sc3c2Cl)cn1 [Compound I-035]         pIC50                  6.99

[A] CCOc1ncc2c(Cl)c(Oc3cnc(OC[C@H](C)NC(C)=O)cn3)ccc2n1 [Compound I-069]
[B] CCc1nsc2c(Cl)c(Oc3cnc(OC[C@H](C)NC(C)=O)cn3)ccc12 [Compound I-063]
[C] CCOc1nc2cc(Cl)c(OC[C@H]3C[C@H](OC[C@H](C)NC(C)=O)C3)cc2s1 [Compound I-100]
Qu. Please produce an ascending ranking of these compounds based on pIC50. Kindly provide the labels arranged according to the requested ordering.
Ans. A, B, C
(A: 5.85, B: 6.89, C: 7.57)

----------
Biological target: recombinant human ACC2 (Homo sapiens (Human))
Test: Measurement of inhibitory activity on human ACC2 (MALDI-TOF MS, acetyl CoA to malonyl CoA conversion)
Assay type: biochemical
Details: Tables 155-159
pIC50: −log10 of the molar value.
measure_name: pIC50

>>> df
                                   molecule  measure_name  observed_measurement
0  CC(=O)N[C@@H](C)CO[C@H]1CC[C@H](Oc2nc3cnc(OC(C)C)c(Cl)c3n2C)CC1 [Compound I-647]         pIC50                  8.22
1  CC(=O)N[C@@H](C)CO[C@H]1CC[C@H](Oc2nc3cnc(C4CC4)c(Cl)c3n2C)CC1 [Compound I-695]         pIC50                  7.02
2  C[C@@H](CO[C@H]1CC[C@H](Oc2nc3c(F)cc(OCC(F)F)c(F)c3n2C)CC1)NC(=O)CC#N [Compound I-714]         pIC50                  7.36
3  CC(=O)N[C@@H](C)CO[C@H]1C[C@H](COc2ncnc(OCC3CC3)c2C)C1 [Compound I-421]         pIC50                  7.62
4  CC(=O)N[C@@H](C)CO[C@H]1C[C@H](COc2ncnc(OCCc3ccccc3)c2Cl)C1 [Compound I-345]         pIC50                  7.42

[a] CC(=O)N[C@@H](C)CO[C@H]1C[C@H](COc2ccc3nc(OC4COC4)sc3n2)C1 [Compound I-307]
[b] CC(=O)N[C@@H](C)CO[C@H]1CC[C@H](Oc2nc3ccc(OCC(F)(F)F)cc3n2C)CC1 [Compound I-571]
[c] CC(=O)N[C@@H](C)[C@H](C)O[C@H]1CC[C@H](Oc2nc3c(F)cc(OCC(F)F)c(F)c3n2C)CC1 [Compound I-659]
Qu. Output the entries ranked by pIC50 from maximum down to minimum. Kindly provide the labels arranged according to the requested ordering.
Ans. c, a, b

----------
Biological target: recombinant human ACC2 (Homo sapiens (Human))
Experiment: Measurement of inhibitory activity on human ACC2 (MALDI-TOF MS, acetyl CoA to malonyl CoA conversion)
Assay type: biochemical
Conditions: Tables 155-159
pIC50: −log10 of the molar value.
measure_name: pIC50

[I] CCN(C)c1nc2ccc(OC[C@H]3C[C@H](OC[C@H](C)NC(C)=O)C3)nc2s1
[II] CC(=O)N[C@@H](C)CO[C@H]1C[C@H](COc2nccc(N3CCC(F)(F)CC3)c2Cl)C1
[III] C[C@@H](CO[C@H]1CC[C@H](Oc2ncc(-c3ncc(F)cn3)cc2F)CC1)NS(C)(=O)=O
[IV] CC(=O)N[C@@H](C)CO[C@H]1C[C@H](COc2nccc(OCC3CC3C)c2Cl)C1 (some centres unmarked)
Qu. Ranking request: pIC50, max to min, items above. Kindly provide the labels arranged according to the requested ordering.
Ans. IV, I, II, III
(IV: 7.72, I: 7.27, II: 6.99, III: 6.49)

[A] CC(=O)N[C@@H](C)CO[C@H]1C[C@H](COc2nccc(N3CCC(F)(F)C3)c2Cl)C1
[B] CC(=O)N[C@@H](C)CO[C@H]1CC[C@H](Oc2nc3cc(C(F)(F)F)ccc3n2C)CC1
[C] CC(=O)N[C@@H](C)CO[C@H]1C[C@H](COc2ncnc(OCc3cccc(Cl)n3)c2Cl)C1
[D] CC(=O)N[C@@H](C)CO[C@H]1CC[C@H](Oc2ccc3nc(OCC4CC4(F)F)n(C)c3n2)CC1 (some centres unmarked)
Qu. Please produce an ascending ranking of these molecules based on pIC50. Kindly provide the labels arranged according to the requested ordering.
Ans. C, B, A, D

[P] CC(=O)N[C@@H](C)CO[C@H]1C[C@H](COc2nc3sc(OCC(F)F)nc3cc2Cl)C1
[Q] C[C@@H](CO[C@H]1C[C@H](COc2ccc3nc(OCC(F)F)sc3n2)C1)NC(=O)C(F)(F)F
[R] CC(=O)N[C@@H](C)CO[C@H]1CC[C@H](Oc2nc3cc(OCC4CC4)ccc3n2C)CC1
Qu. Please produce an ascending ranking of these molecules based on pIC50. Kindly provide the labels arranged according to the requested ordering.
Ans. R, P, Q

----------
Molecular target: recombinant human ACC2 (Homo sapiens (Human))
Assay: Measurement of inhibitory activity on human ACC2 (MALDI-TOF MS, acetyl CoA to malonyl CoA conversion)
Assay type: biochemical
Conditions: Tables 155-159
pIC50: −log10 of the molar value.
measure_name: pIC50

>>> print(df.to_string())
                                   compound  measure_name  observed_measurement
0  CC(=O)N[C@@H](C)CO[C@H]1CC[C@H](Oc2ccc3nc(C(C)C)n(C)c3n2)CC1 [Compound I-513]         pIC50                  6.59
1  CC(=O)N[C@@H](C)CO[C@H]1CC[C@H](Oc2ncc(-c3ncc(C(F)(F)F)cn3)cc2C#N)CC1 [Compound I-546]         pIC50                  7.18
2  CC(=O)N[C@@H](C)CO[C@H]1C[C@H](COc2nccc(OCC3(C)CC3)c2Cl)C1 [Compound I-370]         pIC50                  7.89
3  CC(=O)N[C@@H](C)CO[C@H]1C[C@H](COc2ncnc(OCC3CCCCO3)c2Cl)C1 (some centres unmarked) [Compound I-463]         pIC50                  7.77
4  CC(=O)N[C@@H](C)CO[C@H]1C[C@H](COc2ncnc(OCc3ccc(C(F)(F)F)cc3)c2Cl)C1 [Compound I-349]         pIC50                  7.41
5  CC(=O)N[C@@H](C)CO[C@H]1CC[C@H](Oc2nc3ccc(OCC4CC4)cc3n2C)CC1 [Compound I-561]         pIC50                  6.98

[A] CCCOc1nc2ccc(O[C@H]3CC[C@H](OC[C@H](C)NC(C)=O)CC3)nc2n1C [Compound I-505]
[B] CC(=O)N[C@@H](C)CO[C@H]1C[C@H](COc2ncnc(OCc3ncccc3Cl)c2Cl)C1 [Compound I-386]
Qu. Task for the reader: decide whether A or B has the larger pIC50. Please indicate the selected item by its label.
Ans. A
(A: 7.92, B: 7.15)
